Entries and their fluorescence lifetime
Assay: solvent given as SMILES
Details: in ClCCl
MEASUREMENT_LABEL: fluorescence lifetime (ns)

INSERT INTO results (test_smiles, measurement_label, recorded_value) VALUES
  ('Nc1ccc2c3cccc4cccc(c5cccc1c52)c43', 'fluorescence lifetime', 6.8),
  ('CCOC(=O)CCCCCn1c2ccc(N)cc2c(=O)c2cc3c(cc21)c(=O)c1cc(N)ccc1n3CCCCCC(=O)OCC', 'fluorescence lifetime', 15.6),
  ('COc1c2ccccc2c(OC)c2c1c1cc(F)ccc1n2C', 'fluorescence lifetime', 23.2),
  ('F[B-]1(F)n2c(c3cccc4cccc2c43)=Nc2cccc[n+]21', 'fluorescence lifetime', 7.1),
  ('COc1cc(C(=O)c2c(C)c3ccc4cccc5c6cccc7ccc2c(c76)c3c45)cc(OC)c1OC', 'fluorescence lifetime', 1.35),
  ('O=C1NC(=O)c2ccc(N3CCOCC3)c3cccc1c23', 'fluorescence lifetime', 8.38),
  ('COc1ccc(-c2cc3c(s2)c(C)cc(=O)n3C)cc1', 'fluorescence lifetime', 0.63),
  ('C(=C\c1ccc(N(c2ccc(/C=C/c3ccc(N(c4ccccc4)c4ccccc4)cc3)cc2)c2ccc(/C=C/c3ccc(/C=C/c4ccc(N(c5ccc(/C=C/c6ccc(N(c7ccccc7)c7ccccc7)cc6)cc5)c5ccc(/C=C/c6ccc(N(c7ccccc7)c7ccccc7)cc6)cc5)cc4)c4nsnc34)cc2)cc1)/c1ccc(N(c2ccccc2)c2ccccc2)cc1', 'fluorescence lifetime', 1.86),
  ('COc1ccc(C2=C(C)C3=C(c4c(-c5ccccn5)nc5ccccn45)c4c(C)cc(C)n4[B-](F)(F)[N+]3=C2C)cc1', 'fluorescence lifetime', 2.2),
  ('COc1c2ccccc2c(OC)c2c1c1cccc(OC)c1n2C', 'fluorescence lifetime', 22),
  ('COCc1ncc(-c2c3ccccc3c(-c3cnc(COC)nc3)c3ccccc23)cn1', 'fluorescence lifetime', 6.5),
  ('N#CC(C#N)=Cc1ccc2c(c1)c1ccccc1n2-c1cc2ccccc2c2ccccc12', 'fluorescence lifetime', 4.68),
  ('C[Si](C)(C)c1ccc2ccc3cccc4ccc1c2c34', 'fluorescence lifetime', 94.2),
  ('CCCCOc1ccc(-c2oc3c(-c4ccc(OCCCC)cc4)c4n(c3c2-c2ccc(OCCCC)cc2)[B-](F)(F)[N+]2=Cc3c(-c5ccc(OCCCC)cc5)c5oc(-c6ccc(OCCCC)cc6)c(-c6ccc(OCCCC)cc6)c5n3[B-](F)(F)[N+]2=C4)cc1', 'fluorescence lifetime', 2.56),
  ('Cc1ccc(-n2c(-c3ccccc3O)nc(-c3ccccc3O)c2-c2ccccc2O)cc1', 'fluorescence lifetime', 1.4),
  ('N#Cc1ccc(-n2c(-c3ccc(-c4ccc(-n5c6ccccc6c6ccccc65)cc4)s3)nc3c4ccccc4c4ccccc4c32)c2ccccc12', 'fluorescence lifetime', 4.3);

Values from the Deep4Chem optical property database
